test system: Staphylococcus aureus 209 P; experiment: MIC, in vitro antibacterial activity (standard strains); assay type: cell-based; conditions: Staphylococcus aureus, 209P; 10^6 cells/ml; Gram +; read-out: MIC
assayEndpoint: MIC

[[record]]
compound = "CNCC1CN(c2c(F)cc3c(=O)c(C(=O)O)cn(C4CC4)c3c2F)CC1C (stereo not drawn) [Example 13]"
measvalue = "0.05 mg/L"

[[record]]
compound = "C[C@H]1CN(c2c(F)cc3c(=O)c(C(=O)O)cn(C4CC4)c3c2F)C[C@H]1N.Cl (relative stereo) [Example 20]"
measvalue = "0.05 mg/L"

[[record]]
compound = "CC1CN(c2c(F)cc3c(=O)c(C(=O)O)cn(C4CC4)c3c2F)CC1N.Cl (stereo not drawn) [Example 11]"
measvalue = "0.05 mg/L"

[[record]]
compound = "CCn1cc(C(=O)O)c(=O)c2cc(F)c(N3C[C@@H](N)[C@@H](C)C3)c(F)c21 (relative stereo) [Example 22]"
measvalue = "0.1 mg/L"

[[record]]
compound = "C[C@H]1CN(c2c(F)cc3c(=O)c(C(=O)O)cn(CCF)c3c2F)C[C@H]1N (relative stereo) [Example 25]"
measvalue = "0.2 mg/L"

[[record]]
compound = "CC1COc2c(N3C[C@@H](N)[C@@H](C)C3)c(F)cc3c(=O)c(C(=O)O)cn1c23.Cl (relative stereo) [Example 29]"
measvalue = "0.2 mg/L"

